run.description: Clearance in rat
Assay type: ADME, organism-based
test.context: in vivo
observed.property: clearance (mL/min/kg)

molecule=CCN(C(=O)c1ccc([C@](C)(O)C(F)(F)F)cc1)C1CCCCC1 meas_value=51.7

---

run.description: Oral bioavailability in dog at 2.0
Format: ADME, organism-based, Canis lupus familiaris
test.context: in vivo
observed.property: bioavailability

molecule=C[C@](O)(c1ccc(C(=O)N(C2CC2)[C@H]2CC[C@H](c3cccnc3)CC2)cc1)C(F)(F)F observed_property=bioavailability meas_value=4%

---

Test system: Rattus norvegicus
run.description: AUC in rat at 0.5 mg/kg, iv
Format: ADME, organism-based, Plasma
Parameters: dose 0.5 mg/kg, route intravenous
test.context: in vivo
observed.property: AUC (ng·h/mL)

molecule=C[C@](O)(c1ccc(C(=O)N(C2CC2)[C@H]2CC[C@H](c3cccnc3)CC2)cc1)C(F)(F)F meas_value=481

---

run.description: Half life in rat at 0.17 mg/kg, iv
Type: ADME, organism-based
Parameters: dose 0.17 mg/kg, route intravenous
test.context: in vivo
observed.property: half-life (h)

molecule=C[C@](O)(c1ccc(C(=O)N(C2CC2)[C@H]2CC[C@H](CCC#N)CC2)cc1)C(F)(F)F units_of_measure=h meas_value=0.5
molecule=C[C@](O)(c1ccc(C(=O)N(C2CC2)[C@H]2CC[C@H](c3ccc(C#N)cc3)CC2)cc1)C(F)(F)F units_of_measure=h meas_value=15.7

---

tested.system: 11-beta-hydroxysteroid dehydrogenase 1 (Homo sapiens, UniProt P28845)
Sequence (P28845 whole entry): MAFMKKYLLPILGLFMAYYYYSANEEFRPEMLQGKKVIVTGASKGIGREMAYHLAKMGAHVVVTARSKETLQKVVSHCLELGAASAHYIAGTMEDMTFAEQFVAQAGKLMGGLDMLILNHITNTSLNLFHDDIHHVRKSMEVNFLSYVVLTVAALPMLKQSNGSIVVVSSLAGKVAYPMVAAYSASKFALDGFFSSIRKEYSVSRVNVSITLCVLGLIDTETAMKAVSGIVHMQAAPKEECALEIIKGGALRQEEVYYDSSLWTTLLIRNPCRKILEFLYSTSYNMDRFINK
run.description: Inhibition of human recombinant 11beta-HSD1 expressed in HEK293 cells
Type: cell-based
pIC50: −log10 of the molar value.
observed.property: pIC50

molecule=C[C@](O)(c1ccc(C(=O)N(C2CC2)[C@H]2CC[C@H](c3ccc(C#N)cc3)CC2)cc1)C(F)(F)F observed_property=pIC50 meas_value=7.92
molecule=CCN(C(=O)c1ccc([C@](C)(O)C(F)(F)F)cc1)C1CCCCC1 observed_property=pIC50 meas_value=8.89
molecule=C[C@](O)(c1ccc(C(=O)N(C2CC2)[C@H]2CC[C@H](c3cccnc3)CC2)cc1)C(F)(F)F observed_property=pIC50 meas_value=8.24
molecule=C[C@](O)(c1ccc(C(=O)N(CC(F)(F)F)C2CCCCC2)cc1)C(F)(F)F observed_property=pIC50 meas_value=7.62
molecule=C[C@](O)(c1ccc(C(=O)N(C2CC2)[C@H]2CC[C@H](c3ccccc3)CC2)cc1)C(F)(F)F observed_property=pIC50 meas_value=7.80
molecule=C[C@](O)(c1ccc(C(=O)N(C2CCCCC2)C2CC2)cc1)C(F)(F)F observed_property=pIC50 meas_value=8.62
molecule="CC(O)(c1ccc(C(=O)N(CC2CC2)C2CCCCC2)cc1)C(F)(F)F (racemic)" observed_property=pIC50 meas_value=7.42
molecule="C[C@H]1CCCCN1S(=O)(=O)c1ccc(C(C)(O)C(F)(F)F)cc1 (stereo not given in full)" observed_property=pIC50 meas_value=8.68
molecule=C[C@](O)(c1ccc(C(=O)N(C2CC2)[C@H]2CC[C@@H](c3ccccc3)CC2)cc1)C(F)(F)F observed_property=pIC50 meas_value=7.74
molecule=C[C@](O)(c1ccc(C(=O)N(C2CC2)[C@H]2CC[C@H](CCC#N)CC2)cc1)C(F)(F)F observed_property=pIC50 meas_value=8.89
